Every entry's value here was drawn from patent US20220370440A1.

# TESTED SYSTEM: EGFR Exon 20 INSNPH Ba/F3 (Homo sapiens, UniProt P00533, DUP771-773, cells depend on it)
# Sequence (P00533 with tags, fused parts or gaps DUP771-773): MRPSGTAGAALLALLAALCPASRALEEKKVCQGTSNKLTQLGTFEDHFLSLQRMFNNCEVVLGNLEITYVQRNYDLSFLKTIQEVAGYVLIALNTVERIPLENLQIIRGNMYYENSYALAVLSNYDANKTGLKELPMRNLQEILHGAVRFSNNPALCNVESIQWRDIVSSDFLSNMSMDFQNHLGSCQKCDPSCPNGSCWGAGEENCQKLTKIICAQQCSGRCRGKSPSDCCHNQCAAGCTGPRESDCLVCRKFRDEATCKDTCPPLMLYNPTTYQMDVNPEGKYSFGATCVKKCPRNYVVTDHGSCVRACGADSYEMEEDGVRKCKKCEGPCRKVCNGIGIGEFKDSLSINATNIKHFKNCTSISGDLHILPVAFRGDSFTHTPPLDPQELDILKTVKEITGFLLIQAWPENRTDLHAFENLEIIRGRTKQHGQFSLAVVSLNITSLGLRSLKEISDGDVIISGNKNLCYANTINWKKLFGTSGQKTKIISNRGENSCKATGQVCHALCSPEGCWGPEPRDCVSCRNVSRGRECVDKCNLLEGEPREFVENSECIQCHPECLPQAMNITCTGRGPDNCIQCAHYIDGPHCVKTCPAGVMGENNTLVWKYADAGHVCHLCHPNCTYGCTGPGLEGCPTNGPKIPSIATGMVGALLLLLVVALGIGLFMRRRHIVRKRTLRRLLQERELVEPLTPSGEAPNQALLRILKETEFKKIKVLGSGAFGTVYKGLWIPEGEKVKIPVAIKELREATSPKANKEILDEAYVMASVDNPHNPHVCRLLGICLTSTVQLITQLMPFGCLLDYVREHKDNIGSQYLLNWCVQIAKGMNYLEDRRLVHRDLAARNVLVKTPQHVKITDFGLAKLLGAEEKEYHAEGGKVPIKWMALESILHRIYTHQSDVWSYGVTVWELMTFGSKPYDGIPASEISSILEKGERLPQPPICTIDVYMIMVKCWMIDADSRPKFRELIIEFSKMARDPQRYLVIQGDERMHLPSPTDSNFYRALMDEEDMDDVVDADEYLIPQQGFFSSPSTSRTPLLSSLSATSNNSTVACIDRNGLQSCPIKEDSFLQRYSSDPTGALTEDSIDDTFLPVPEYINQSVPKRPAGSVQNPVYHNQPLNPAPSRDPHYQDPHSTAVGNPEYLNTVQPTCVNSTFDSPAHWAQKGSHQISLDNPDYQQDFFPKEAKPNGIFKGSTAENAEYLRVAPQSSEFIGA
# ASSAY METHOD TEXT: EGFR Exon 20 INSNPH Ba/F3 CellTiter-Glo
# Type: cell-based
# SETUP CONDITIONS: CellTiter-Glo, 72 h, read-out: EGFR Exon 20 INSNPH Ba/F3 CTG IC50
Could you please report measured GI50 for the items listed next?

| MOLECULE | GI50 |
| --- | --- |
| C=CC(=O)Nc1cc(-c2c(-c3ccc(N4CCN(C(C)C)CC4)cc3)[nH]c3ncc(C(=O)OC(C)C)cc23)ccc1C [Example 176] | 100 to 500 nM |
| C=CC(=O)Nc1cc(-c2c(-c3ccc(N4CCN(C)CC4)cc3)[nH]c3ncc(C(=O)OCC)cc23)ccc1C [Example 135] | 100 to 500 nM |

# batch size: 2; output GI50 per entry
1. C=CC(=O)Nc1cc(-c2c(-c3cccc(OCCCN(C)C)c3)[nH]c3ncc(C(=O)OC(C)C)cc23)ccc1C [Example 183]
2. C=CC(=O)Nc1cc(-c2c(-c3ccc(N4CCN(C)CC4)nc3)[nH]c3nccc(Cl)c23)ccc1C [Example 19]

1: 100 to 500 nM; 2: 500 to 1000 nM

* * *

# TESTED SYSTEM: EGFR Exon 20 INSNPH Ba/F3 (Homo sapiens, UniProt P00533, DUP771-773, cells depend on it)
# ASSAY METHOD TEXT: EGFR Exon 20 INSNPH Ba/F3 CellTiter-Glo
# Format: cell-based
# SETUP CONDITIONS: CellTiter-Glo, 72 h, read-out: EGFR Exon 20 INSNPH Ba/F3 CTG IC50
Give measured GI50 for each item. Keep answers brief.

| COMPOUND | GI50 |
| --- | --- |
| C=CC(=O)Nc1cc(-c2c(-c3ccc(NC(C)=O)cc3)[nH]c3nccc(Cl)c23)ccc1C | 500 to 1000 nM |
| C=CC(=O)Nc1cc(-c2c(-c3cnc(N4CCOCC4)nc3)[nH]c3nccc(Cl)c23)ccc1C | 1000 to 10000 nM |
| C=CC(=O)N1CCc2ccc(-c3c(-c4ccc(CN5CCN(C)CC5)cc4)[nH]c4nccc(OCC)c34)cc21 | 100 to 500 nM |
| Cc1ccc(-c2c(-c3ccc(N4CCN(C)CC4)cc3)[nH]c3nccc(Cl)c23)cc1NC(=O)/C=C/CN(C)C [Example 143, 2,2,2-trifluoroacetate] | 100 to 500 nM |
| C=CC(=O)N1CCc2ccc(-c3c(-c4ccc(C(=O)N5CCN(C)CC5)cc4)[nH]c4nccc(Cl)c34)cc21 | 500 to 1000 nM |
| C=CC(=O)Nc1cc(-c2c(-c3ccc(CCN(C)C)cc3)[nH]c3ncc(C(=O)OC(C)C)cc23)ccc1C | 100 to 500 nM |
| C=CC(=O)Nc1cc(-c2c(-c3ccc(N4CCN(C)CC4)cc3)[nH]c3ncc(C(=O)O)cc23)ccc1C [Example 116, 2,2,2-trifluoroacetate] | > 10000 nM |

Please turn your attention to the following entry.
I would be grateful if you could share the reported GI50 for C=CC(=O)Nc1cc(-c2c(-c3ccc(N4CCN(C)CC4)cc3)[nH]c3ncc(C(=O)NCc4ccccc4)cc23)ccc1C [Example 118, 2,2,2-trifluoroacetate] .
100 to 500 nM
